Every entry's value here was drawn from patent US12624067B2.

Molecular target: human integrin αvβ5 (Homo sapiens, UniProt P06756+P18084)
Sequence (P06756 31-889 limits assumed): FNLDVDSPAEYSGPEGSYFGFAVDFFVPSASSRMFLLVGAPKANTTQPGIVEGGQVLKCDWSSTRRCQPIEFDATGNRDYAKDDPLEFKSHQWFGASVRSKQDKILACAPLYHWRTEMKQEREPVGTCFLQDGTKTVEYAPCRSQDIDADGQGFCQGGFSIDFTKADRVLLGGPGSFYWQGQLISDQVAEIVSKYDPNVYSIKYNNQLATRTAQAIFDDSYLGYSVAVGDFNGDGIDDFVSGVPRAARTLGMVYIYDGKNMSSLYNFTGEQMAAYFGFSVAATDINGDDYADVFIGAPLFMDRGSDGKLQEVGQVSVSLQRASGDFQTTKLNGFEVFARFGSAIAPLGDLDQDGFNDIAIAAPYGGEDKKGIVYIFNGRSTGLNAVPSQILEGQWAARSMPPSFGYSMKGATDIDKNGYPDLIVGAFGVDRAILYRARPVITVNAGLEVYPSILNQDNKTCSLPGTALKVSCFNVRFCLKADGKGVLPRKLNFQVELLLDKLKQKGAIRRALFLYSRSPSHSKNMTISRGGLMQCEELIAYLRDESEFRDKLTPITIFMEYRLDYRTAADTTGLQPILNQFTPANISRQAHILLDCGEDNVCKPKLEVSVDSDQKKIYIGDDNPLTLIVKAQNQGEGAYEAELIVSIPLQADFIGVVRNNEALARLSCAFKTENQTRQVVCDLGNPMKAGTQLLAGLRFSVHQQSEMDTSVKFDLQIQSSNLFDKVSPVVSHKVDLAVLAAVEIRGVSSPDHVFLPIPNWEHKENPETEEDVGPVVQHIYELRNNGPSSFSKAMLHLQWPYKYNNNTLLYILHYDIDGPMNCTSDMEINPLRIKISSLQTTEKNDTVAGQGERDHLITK
Sequence (P06756 891-1048 partner limits assumed): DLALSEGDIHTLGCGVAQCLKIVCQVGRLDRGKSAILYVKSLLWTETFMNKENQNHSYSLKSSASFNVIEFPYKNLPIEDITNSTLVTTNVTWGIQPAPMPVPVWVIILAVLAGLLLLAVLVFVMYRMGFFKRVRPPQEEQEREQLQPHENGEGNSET
Sequence (P18084 24-799): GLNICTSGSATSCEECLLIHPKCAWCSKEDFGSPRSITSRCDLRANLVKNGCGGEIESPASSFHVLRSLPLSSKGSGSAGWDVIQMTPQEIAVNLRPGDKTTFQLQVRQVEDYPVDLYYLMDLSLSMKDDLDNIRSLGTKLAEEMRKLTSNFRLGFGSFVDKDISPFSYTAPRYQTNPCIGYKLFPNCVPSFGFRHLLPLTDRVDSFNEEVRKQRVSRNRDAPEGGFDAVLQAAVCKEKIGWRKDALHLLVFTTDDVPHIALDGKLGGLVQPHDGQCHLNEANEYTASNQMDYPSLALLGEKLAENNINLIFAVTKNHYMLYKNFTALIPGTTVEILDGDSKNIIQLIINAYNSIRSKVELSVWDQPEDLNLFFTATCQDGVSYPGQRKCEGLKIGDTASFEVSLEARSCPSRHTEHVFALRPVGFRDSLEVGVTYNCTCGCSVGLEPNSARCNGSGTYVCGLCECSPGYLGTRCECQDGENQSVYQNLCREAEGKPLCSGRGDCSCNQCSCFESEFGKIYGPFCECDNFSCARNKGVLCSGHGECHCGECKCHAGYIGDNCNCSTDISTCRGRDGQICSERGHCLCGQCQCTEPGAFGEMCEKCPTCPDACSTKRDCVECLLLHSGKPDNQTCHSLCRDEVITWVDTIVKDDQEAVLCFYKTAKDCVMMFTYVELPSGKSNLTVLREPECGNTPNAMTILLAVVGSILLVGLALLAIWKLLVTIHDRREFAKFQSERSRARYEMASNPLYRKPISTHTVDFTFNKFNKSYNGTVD
Experiment: Evaluation of integrin binding property (surface plasmon resonance, Biacore 3000, immobilized cyclic peptide)
Conditions: peptide immobilized on CM5 sensor chip; human integrin αvβ5 30-1,000 nM, 25° C., HEPES buffer with 5 mM magnesium chloride; read-out: Integrin binding property (dissociation constant)
Numbered stars: 1 amine (or outer) side, 2 acyl side, 3 side chain; on linkers, the order of the positions; unused ones are H or OH. Bridge positions count the residues as written; N and C are the ends. Square brackets hold non-standard residues; d marks the D form. Peptide text beside a SMILES is read from it. hCys = N[C@@H](CCS)C(=O)O; Orn = NCCC[C@H](N)C(=O)O; Dap = NC[C@H](N)C(=O)O; X1 = O=C(C[*:1])[*:2]; X2 = O=C(C[*:2])[*:1]
measured metric: Kd

>>> endpoint_result("CC(C)[C@@H]1NC(=O)CSCC[C@@H](C(=O)N[C@@H](CCCCN)C(=O)N[C@@H](CCCCN)C(=O)N[C@@H](CCCCN)C(=O)O)NC(=O)[C@H](Cc2ccccc2)NC(=O)[C@@H]2CCSCC(=O)NCCC[C@H](NC1=O)C(=O)N[C@@H](CCCNC(=N)N)C(=O)NCC(=O)N[C@@H](CC(=O)O)C(=O)N2 [Cyclic peptide 38] ({CH2CO}-V[Orn]RGD[hCys]F[hCys]KKK-OH; linker 2-6 via X2; thioether N-8)")
"< 50 nM"
>>> endpoint_result("N=C(N)NCCC[C@@H]1NC(=O)[C@@H]2CCSCC(=O)NCCCC[C@H](NC(=O)[C@H](CC(=O)O)NC(=O)CNC1=O)C(=O)N[C@@H](Cc1ccccc1)C(=O)N[C@H](C(=O)N[C@@H](CCCCN)C(=O)N[C@@H](CCCCN)C(=O)N[C@@H](CCCCN)C(=O)O)CCSCC(=O)N[C@@H](CCC(=O)O)C(=O)N2 [Cyclic peptide 30] ({CH2CO}-E[hCys]RGDKF[hCys]KKK-OH; linker 2-6 via X1; thioether N-8)")
"< 50 nM"
>>> endpoint_result("CC[C@H](C)[C@@H]1NC(=O)CSCC[C@@H](C(=O)N[C@@H](CCCCN)C(=O)N[C@@H](CCCCN)C(=O)N[C@@H](CCCCN)C(=O)O)NC(=O)[C@H](Cc2ccccc2)NC(=O)[C@@H]2CNC(=O)CSCC[C@H](NC1=O)C(=O)N[C@@H](CCCNC(=N)N)C(=O)NCC(=O)N[C@@H](CC(=O)O)C(=O)N2 [Cyclic peptide 5] ({CH2CO}-I[hCys]RGD[Dap]F[hCys]KKK-OH; linker 2-6 via X1; thioether N-8)")
"50 to 100 nM"
